# Measurement target: RAF proto-oncogene serine/threonine-protein kinase (Homo sapiens)
# Assay setup: at 0.1 µM

>  <Molecule>
Cc1ccc(C(=O)NC2CCCCC2)cc1-c1ccc(C(=O)NCC2CC2)cc1

>  <Measurement target>
RAF proto-oncogene serine/threonine-protein kinase (Homo sapiens)

>  <inhibition / %>
4.27

$$$$
>  <Molecule>
O=C1Nc2ccc(C(=O)c3ccco3)cc2C1=Cc1cc(Cl)c(O)c(Cl)c1

>  <Measurement target>
RAF proto-oncogene serine/threonine-protein kinase (Homo sapiens)

>  <inhibition / %>
2.35

$$$$
>  <Molecule>
CC1=C(C(=O)Nc2ccc3[nH]ncc3c2)C(c2ccc(Cl)c(Cl)c2)CC(=O)N1 (configuration not stated)

>  <Measurement target>
RAF proto-oncogene serine/threonine-protein kinase (Homo sapiens)

>  <inhibition / %>
4.61

$$$$
>  <Molecule>
O=C(Nc1n[nH]c2nc(-c3ccco3)c(Br)cc12)C1CC1

>  <Measurement target>
RAF proto-oncogene serine/threonine-protein kinase (Homo sapiens)

>  <inhibition / %>
1.52

$$$$
>  <Molecule>
Nc1nc(-c2ccccn2)c(-c2ccc3ncccc3n2)s1

>  <Measurement target>
RAF proto-oncogene serine/threonine-protein kinase (Homo sapiens)

>  <inhibition / %>
2.42

$$$$
>  <Molecule>
CCn1c(-c2nonc2N)nc2c(C#CC(C)(C)O)nc(CN3CCCC3)cc21

>  <Measurement target>
RAF proto-oncogene serine/threonine-protein kinase (Homo sapiens)

>  <inhibition / %>
-3.54

$$$$
>  <Molecule>
CC(C)=Cc1cccc2c1/C(=N/Nc1ccc(S(N)(=O)=O)cc1)C(=O)N2

>  <Measurement target>
RAF proto-oncogene serine/threonine-protein kinase (Homo sapiens)

>  <inhibition / %>
3.26

$$$$
>  <Molecule>
CN(C)c1cc2c(Nc3ccc4nc(Cc5ccccc5)[nH]c4c3)ncnc2cn1

>  <Measurement target>
RAF proto-oncogene serine/threonine-protein kinase (Homo sapiens)

>  <inhibition / %>
-7.41

$$$$
>  <Molecule>
CC1=C(C(=O)Nc2ccc3[nH]ncc3c2)C(c2ccc(F)cc2)NC(=O)N1 (configuration not stated)

>  <Measurement target>
RAF proto-oncogene serine/threonine-protein kinase (Homo sapiens)

>  <inhibition / %>
1.97

$$$$
>  <Molecule>
COc1ccc(-c2nn3ncccc3c2-c2ccnc(Nc3ccc(Cl)c(C(F)(F)F)c3)n2)cc1

>  <Measurement target>
RAF proto-oncogene serine/threonine-protein kinase (Homo sapiens)

>  <inhibition / %>
-1.5

$$$$
>  <Molecule>
[O-][S+]1CCN(Cc2ccc(-c3ccc4ncnc(Nc5ccc(OCc6ccccc6)c(F)c5)c4c3)o2)CC1

>  <Measurement target>
RAF proto-oncogene serine/threonine-protein kinase (Homo sapiens)

>  <inhibition / %>
-0.54

$$$$
>  <Molecule>
Cn1cc(C=C2C(=O)Nc3cccnc32)c2ccccc21

>  <Measurement target>
RAF proto-oncogene serine/threonine-protein kinase (Homo sapiens)

>  <inhibition / %>
-3.3

$$$$
>  <Molecule>
COc1ccc(-c2coc3ncnc(N)c23)cc1

>  <Measurement target>
RAF proto-oncogene serine/threonine-protein kinase (Homo sapiens)

>  <inhibition / %>
2.99

$$$$
>  <Molecule>
COC(=O)Nc1nc2cc(Oc3ccc(NC(=O)Nc4cccc(C(=O)O)c4)cc3)ccc2[nH]1

>  <Measurement target>
RAF proto-oncogene serine/threonine-protein kinase (Homo sapiens)

>  <inhibition / %>
-0.09

$$$$
>  <Molecule>
Cc1nn(C)c2cc(N(C)c3ccnc(Nc4cccc(S(N)(=O)=O)c4)n3)ccc12

>  <Measurement target>
RAF proto-oncogene serine/threonine-protein kinase (Homo sapiens)

>  <inhibition / %>
-2.36

$$$$
>  <Molecule>
COc1cc2ncn(-c3cc(OCc4ccccc4C(F)(F)F)c(C(N)=O)s3)c2cc1OC

>  <Measurement target>
RAF proto-oncogene serine/threonine-protein kinase (Homo sapiens)

>  <inhibition / %>
1.99

$$$$
>  <Molecule>
Nc1ncnc2occ(-c3ccc(NC(=O)Nc4cccc(C(F)(F)F)c4)cc3)c12

>  <Measurement target>
RAF proto-oncogene serine/threonine-protein kinase (Homo sapiens)

>  <inhibition / %>
0.71

$$$$
>  <Molecule>
Fc1cccc(COc2ccc(Nc3ncnc4sc(-c5cccs5)cc34)cc2Cl)c1

>  <Measurement target>
RAF proto-oncogene serine/threonine-protein kinase (Homo sapiens)

>  <inhibition / %>
1.45

$$$$
>  <Molecule>
COc1cc(C)c(NC(=O)CN(C)C)cc1Nc1nc(Nc2cccc(F)c2C(N)=O)c2cc[nH]c2n1

>  <Measurement target>
RAF proto-oncogene serine/threonine-protein kinase (Homo sapiens)

>  <inhibition / %>
-0.92

$$$$
>  <Molecule>
O=C1NC(=O)C(c2cccc(Cl)c2)=C1Nc1ccc(O)c(Cl)c1

>  <Measurement target>
RAF proto-oncogene serine/threonine-protein kinase (Homo sapiens)

>  <inhibition / %>
0.68

$$$$
>  <Molecule>
CS(=O)(=O)CCNCc1ccc(-c2ccc3ncnc(Nc4ccc(OCc5cccc(F)c5)c(C(F)(F)F)c4)c3c2)o1

>  <Measurement target>
RAF proto-oncogene serine/threonine-protein kinase (Homo sapiens)

>  <inhibition / %>
2.93

$$$$
>  <Molecule>
CS(=O)(=O)CCN(CC#N)Cc1ccc(-c2ccc3ncnc(Nc4ccc(OCc5cccc(F)c5)c(Cl)c4)c3c2)o1

>  <Measurement target>
RAF proto-oncogene serine/threonine-protein kinase (Homo sapiens)

>  <inhibition / %>
0.21

$$$$
>  <Molecule>
NCc1ccc(-c2nc(-c3ccc(Cl)c(O)c3)c(-c3ccncc3)[nH]2)cc1

>  <Measurement target>
RAF proto-oncogene serine/threonine-protein kinase (Homo sapiens)

>  <inhibition / %>
6.34

$$$$
>  <Molecule>
COc1ccccc1Nc1ncc(-c2ccccc2)o1

>  <Measurement target>
RAF proto-oncogene serine/threonine-protein kinase (Homo sapiens)

>  <inhibition / %>
3.32

$$$$
>  <Molecule>
CS(=O)(=O)Nc1ccc(N/C=C2\C(=O)Nc3ccccc32)cc1

>  <Measurement target>
RAF proto-oncogene serine/threonine-protein kinase (Homo sapiens)

>  <inhibition / %>
-5.04

$$$$
>  <Molecule>
Cc1cccc(-c2n[nH]cc2-c2ccc3ncccc3n2)n1

>  <Measurement target>
RAF proto-oncogene serine/threonine-protein kinase (Homo sapiens)

>  <inhibition / %>
-0.77

$$$$
>  <Molecule>
Cc1cc(O)cc(C)c1/C=C/c1cncc(-c2nn[nH]n2)c1

>  <Measurement target>
RAF proto-oncogene serine/threonine-protein kinase (Homo sapiens)

>  <inhibition / %>
4.51

$$$$
>  <Molecule>
O=C1NC(=O)C(c2ccccc2Cl)=C1Nc1cccc(O)c1

>  <Measurement target>
RAF proto-oncogene serine/threonine-protein kinase (Homo sapiens)

>  <inhibition / %>
4.73

$$$$
>  <Molecule>
CCn1c(-c2nonc2N)nc2cncc(C(=O)N3CCNCC3)c21

>  <Measurement target>
RAF proto-oncogene serine/threonine-protein kinase (Homo sapiens)

>  <inhibition / %>
4.15

$$$$
>  <Molecule>
Cc1nnc(-c2ccc(C)c(-c3ccc(C(=O)Nc4cccc(C#N)c4)cc3)c2)o1

>  <Measurement target>
RAF proto-oncogene serine/threonine-protein kinase (Homo sapiens)

>  <inhibition / %>
-4.37

$$$$
>  <Molecule>
NC(=O)c1cccc(Nc2nccc(Nc3cccc4[nH]ncc34)n2)c1

>  <Measurement target>
RAF proto-oncogene serine/threonine-protein kinase (Homo sapiens)

>  <inhibition / %>
-3.86

$$$$
>  <Molecule>
O=C1NC(=O)C(c2ccc(Cl)cc2)=C1Nc1ccc(Cl)c(C(=O)O)c1

>  <Measurement target>
RAF proto-oncogene serine/threonine-protein kinase (Homo sapiens)

>  <inhibition / %>
-4.76

$$$$
>  <Molecule>
CCn1c(-c2nonc2N)nc2cnc(Oc3cccc(NC(=O)c4ccc(OCCN5CCOCC5)cc4)c3)cc21

>  <Measurement target>
RAF proto-oncogene serine/threonine-protein kinase (Homo sapiens)

>  <inhibition / %>
-0.87

$$$$
>  <Molecule>
COc1cc2c(cc1Nc1nc(N3CCc4ccccc43)c3cc[nH]c3n1)N(C(=O)CN(C)C)CC2

>  <Measurement target>
RAF proto-oncogene serine/threonine-protein kinase (Homo sapiens)

>  <inhibition / %>
-4.52

$$$$
>  <Molecule>
Nc1ncnc2occ(-c3ccc(NC(=O)Nc4cc(C(F)(F)F)cc(C(F)(F)F)c4)cc3)c12

>  <Measurement target>
RAF proto-oncogene serine/threonine-protein kinase (Homo sapiens)

>  <inhibition / %>
4.46

$$$$
>  <Molecule>
CS(=O)(=O)CCNCc1nc(-c2ccc3ncnc(Nc4ccc(F)c(Cl)c4)c3c2)cs1

>  <Measurement target>
RAF proto-oncogene serine/threonine-protein kinase (Homo sapiens)

>  <inhibition / %>
-0.76

$$$$
>  <Molecule>
COc1cc2ncn(-c3cc(O[C@H](C)c4ccccc4Cl)c(C(N)=O)s3)c2cc1OC

>  <Measurement target>
RAF proto-oncogene serine/threonine-protein kinase (Homo sapiens);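 also: values are mean CRAF kinase inhibition from profiling of the GSK Published Kinase Inhibitor Set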

>  <inhibition / %>
1.34

$$$$

* * *

# Measurement target: Serine/threonine-protein kinase pim-1 (Homo sapiens) (UniProt P11309);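 also: reported value is the mean inhibition of PIM1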
# Sequence (P11309 whole entry, looked up): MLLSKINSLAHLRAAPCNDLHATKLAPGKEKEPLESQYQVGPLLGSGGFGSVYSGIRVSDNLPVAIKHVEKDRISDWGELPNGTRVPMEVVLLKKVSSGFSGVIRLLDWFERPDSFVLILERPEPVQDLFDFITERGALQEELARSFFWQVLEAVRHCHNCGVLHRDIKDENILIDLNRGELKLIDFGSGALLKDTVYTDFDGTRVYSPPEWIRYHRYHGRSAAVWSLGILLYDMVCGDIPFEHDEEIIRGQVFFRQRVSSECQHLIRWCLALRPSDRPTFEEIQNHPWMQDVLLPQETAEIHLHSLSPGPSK
# Assay setup: at 0.1 µM
Recorded inhibition values for a group of molecules are listed next.

>  <Smiles code>
Cc1nnc(-c2ccc(C)c(-c3ccc(C(=O)Nc4cccc(C#N)c4)cc3)c2)o1

>  <inhibition, %>
-0.05

$$$$
>  <Smiles code>
COc1cc2c(cc1Nc1nc(N3CCc4ccccc43)c3cc[nH]c3n1)N(C(=O)CN(C)C)CC2

>  <inhibition, %>
0.66

$$$$
>  <Smiles code>
COc1cc2ncn(-c3cc(O[C@H](C)c4ccccc4Cl)c(C(N)=O)s3)c2cc1OC

>  <inhibition, %>
1.15

$$$$
>  <Smiles code>
COc1ccc(COc2ccc(Cc3cnc(N)nc3N)cc2OC)cc1

>  <inhibition, %>
1.34

$$$$
>  <Smiles code>
Fc1cccc(COc2ccc(Nc3ncnc4sc(-c5cccs5)cc34)cc2Cl)c1

>  <inhibition, %>
0.38

$$$$
>  <Smiles code>
NC(=O)c1ccc(-c2nc(-c3ccccn3)c(-c3ccc4c(c3)OCO4)[nH]2)cc1

>  <inhibition, %>
-0.68

$$$$
>  <Smiles code>
CCn1c(-c2nonc2N)nc2ccncc21

>  <inhibition, %>
-0.28

$$$$
>  <Smiles code>
Cc1cccc(-c2n[nH]cc2-c2ccc3ncccc3n2)n1

>  <inhibition, %>
-0.24

$$$$
>  <Smiles code>
CCCN1CCC(Oc2cc(Nc3nc(Nc4cccc(F)c4C(N)=O)c4cc[nH]c4n3)c(OC)cc2Cl)CC1

>  <inhibition, %>
4.08

$$$$
>  <Smiles code>
CCn1c(-c2nonc2N)nc2c(C#CC(C)(C)O)nc(OC[C@@H](N)c3ccccc3)cc21

>  <inhibition, %>
1.15

$$$$

Value source: ChEMBL document CHEMBL1961873
